- assaySystem: T1, dP75 PWWP K38A (Drosophila melanogaster, UniProt Q9VAA9 9-90, K38A)
- T1 sequence: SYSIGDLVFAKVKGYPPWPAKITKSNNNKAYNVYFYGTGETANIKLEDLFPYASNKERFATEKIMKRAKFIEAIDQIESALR
- test: fluorescence polarization

{"columns": ["binder", "Kd / µM"],
 "data": [
  ["TTTTTTTTTTTT (ssDNA) [FAM-12T (polyT)]", 60.9]
]}
